- System: murine macrophage J774.A1 cells
- procedureSummary: Nitric oxide (NO) inhibition in LPS-stimulated J774.A1 cells (Griess)
- Format: cell-based
- experimentalConditions: Table 7 focused library, NO inhibition; read-out: NO
propertyLabel: IC50 (µM)
Give bare numbers, in µM.

Past entries and their recorded results:
1. CCCCCCCCCCCCCCNCCCCC(N)C(=O)NCCCNCCCCNCCCN (centres unmarked) [Compound 43]    6.17
2. CCCCCCCCCCCCCCCCCCNCCCC[C@@H](N)C(=O)NCCCNCCCCNCCCN [Compound 48, D-Lys-ε-(octadecanyl)-N^1-spermine]    3.08
3. CCCCCCCCCCCCCCNCCCCCC(=O)NCCCNCCCCNCCCN [Compound 54]    9.48
4. CCCCCCCCCCCCCCCCNCCCCC(N)C(=O)NCCCNCCCCNCCCN (centres unmarked) [Compound 47]    6.89
5. CCCCCCCCCCCCCCCCNCCCCCC(=O)NCCCNCCCCNCCCN [Compound 55]    6.12

I need IC50 for every entry listed below, if you could help.
1. CCCCCCCCCCCCCCCCCCCCNCCCCCC(=O)NCCCNCCCCNCCCN [Compound 57]
2. CCCCCCCCCCCCCCNCCCCC(N)C(=O)NCCCNCCCCNCCCN (centres unmarked) [Compound 46]
3. CCCCCCCCCCCCCCCCCCCCNCCCCC(N)C(=O)NCCCNCCCCNCCCN (centres unmarked) [Compound 45]
4. CCCCCCCCCCCCCCCCCC(=O)NCCCCCC(=O)NCCCNCCCCNCCCN [Compound 52]

Response given:
[5.02, 5.34, 3.67, 29.6]

I need IC50 for every entry listed below, if you could help.
1. CCCCCCCCCCCCCCCCCCNCCCCCC(=O)NCCCNCCCCNCCCN [Compound 56]
2. CCCCCCCCCCCCCC(=O)NCCCCCC(=O)NCCCNCCCCNCCCN [Compound 50]
3. CCCCCCCCCCCCCCCCCC(=O)NCCCCC(N)C(=O)NCCCNCCCCNCCCN [Compound 8, D-Lys-ε-(stearoyl)-N^1-spermine]
4. CCCCCCCCCCCCCCCC(=O)NCCCCC(N)C(=O)NCCCNCCCCNCCCN [Compound 13, D-Lys-ε-(palmitoyl)-N^1-spermine]

Response given:
1: 5.34; 2: 48.4; 3: 10.3; 4: 13

Challenge: # lookup: IC50 of CCCCCCCCCCCCCCCCCCCCNCCCCC(N)C(=O)NCCCNCCCCNCCCN (centres unmarked) [Compound 49]
Response given: 2.2
